Origin of the recorded values: the supplement of paper PMC10567573

- protocol-details: protein stability index of a GFP-peptide fusion (GPS, HEK-293T) (PSI 1-6); higher = more stable;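 also: 24-mer peptide tiles fused after GFP, lentivirally expressed, FACS-sorted into six equal bins by GFP/DsRed ratio, decoded by Illumina sequencing, PSI is the read-weighted mean bin number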
- applied-conditions: treatment: MLN4924 1 uM, 8 h; c terminus: a fixed tail appended
Returns one of True or False; True when protein stability index is >= 3.

Asked: Could you verify whether the entry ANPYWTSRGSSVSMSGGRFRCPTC [TRIM63] shows protein stability index of no less than 3?
Given back: True

Asked: Consider next the sequence DEIEEVPTTSHRLSRHDKAVQRFC [NETO1] in the same way.
Given back: True

Asked: Also KTSELLVRKWRVKSALGAMGQWQL [DPCD] , if possible.
Given back: False

###

- protocol-details: protein stability index of a GFP-peptide fusion (GPS, HEK-293T) (PSI 1-6); higher = more stable
- applied-conditions: treatment: DMSO; c terminus: a fixed tail appended
recorded-metric: protein stability index
# output: bare number, no unit

Below, 6 sequences whose answers are already recorded.
INSERT INTO results (residues, recorded_metric, number) VALUES
  ('VKEWFGLGGEQAEEKAFESVIEPV [MIA2]', 'protein stability index', 4.23),
  ('PEVEVQVKRRRTASLSNQECQLYP [SNURF]', 'protein stability index', 4.77),
  ('EAFKNILTEIYRIVSQKQIADRAA [RAB11B]', 'protein stability index', 2.81),
  ('KSQLGFLNVTNYCHLAHELRLSCM [DCAF4]', 'protein stability index', 3.04),
  ('KKDRPLARRKSELPQDPHTKKALE [PPP2R5C]', 'protein stability index', 5.11),
  ('LCRRLNTLNKCAVMKLEISPHRKR [DLC1]', 'protein stability index', 2.12);

// switching to the query sequence
Asked: I'd like to know its protein stability index. The sequence in question is SDLFRLQEYNIPGVIQSVIGWKTV [CDS2]
Given back: 2.28

###

- protocol-details: protein stability index of a GFP-peptide fusion (GPS, HEK-293T) (PSI 1-6); higher = more stable
- applied-conditions: treatment: DMSO; c terminus: a fixed tail appended
recorded-metric: protein stability index
Form rule: numeric answer, no unit written next to it.

INSERT INTO measurements (residues, number) VALUES
  ('VTSQQEPQIPVDRGSETTYESSAD [TAF7L]', 5.21);

Asked: Quick check: protein stability index of HRLLNMARNNNDPGRLTEALCLEV [RNF180] ?
Given back: 3.89

###

- protocol-details: protein stability index of a GFP-peptide fusion (GPS, HEK-293T) (PSI 1-6); higher = more stable
- applied-conditions: treatment: MLN4924 1 uM, 8 h; c terminus: a fixed tail appended
A collection of sequences and their measured protein stability index
The answer should be a number; do not append a unit.

Worked cases, protein stability index given:
INSERT INTO measurements (residues, recorded_metric, number) VALUES
  ('VGVATADAPLHSVGYTTLVGNNHE [SPSB1]', 'protein stability index', 4.16),
  ('GGPQALVNIMRTYTYEKLLWTTSR [CTNNB1]', 'protein stability index', 2.5),
  ('PGGPGAMTESLEASEFLEQSMSQT [RSPH3]', 'protein stability index', 5.16),
  ('RVMPTQEVQELPIPSKLLEFLSYR [WSB1]', 'protein stability index', 2.95),
  ('ANETYENNFDNLDFDLDLVPWESD [ATF6]', 'protein stability index', 4.82);

Asked: // lookup protein stability index for DIKKVNNFIREQDLYALKSVKIPV [LYSMD4]
Given back: 2.53

Asked: And for LGANEVLLVVGGFGSQQSPIDVVE [KLHL12] ?
Given back: 2.25

Asked: Same again, this time with RELLMNHRRGLGVDSKPELQRVLE [FAM107A]
Given back: 4.09

Asked: Do the same for DTSFLPDRDREEEENRLREELRQE [FAM50A] please
Given back: 5.41

Asked: Please give the result for VCMDLRANLKQVKKEDTEKERDLR [TNNI2] too.
Given back: 4.77

###

- protocol-details: protein stability index of a GFP-peptide fusion (GPS, HEK-293T) (PSI 1-6); higher = more stable
- applied-conditions: treatment: MLN4924 1 uM, 8 h; c terminus: a fixed tail appended
Quick reference: protein stability index of the listed items.

# count of solved cases: 4
INSERT INTO measurements (residues, recorded_metric, result) VALUES
  ('TKLRLERVKFRRQEANARERNRMH [NEUROD6]', 'protein stability index', 3.92),
  ('ALIICYNWLHRRLAGQFLEELRKF [MOG]', 'protein stability index', 2.47),
  ('GPAGGLADLSSGSSGEDDDFKSCP [PWWP2B]', 'protein stability index', 5.45),
  ('AVFMWPGKDSRWLPSLVLARLVFV [SLC29A1]', 'protein stability index', 2.67);

Asked: Suppose we examine the sequence IVDPTTGKRYCRGKVLGKGGFAKC [PLK2] ; what protein stability index value has been reported?
Given back: 2.92

Asked: Again, but for DGLREALANLRGLSEEERSEKAML [CCDC89]
Given back: 4.51

Asked: What do you get for CTLGICGQGLKSYMTKPSKSLLPH [RTP4] ?
Given back: 2.21

###

- protocol-details: protein stability index of a GFP-peptide fusion (GPS, HEK-293T) (PSI 1-6); higher = more stable
- applied-conditions: treatment: MLN4924 1 uM, 8 h; c terminus: a fixed tail appended
recorded-metric: protein stability index

INSERT INTO assay_data (residues, result) VALUES
  ('PIHTIILNPHVHLVGDDAACIAYI [CAMK2D]', 3.12),
  ('PDEGSDLFYDDYYEDGEVEEEADS [CDC34]', 5.66),
  ('ESDDAFDTVTIPVPSEEPQESDQT [IQUB]', 5.72),
  ('IDAVPVDENLFTGEDLDELEEELN [ZC3H15]', 5.51),
  ('AEVSWEPGRREGCDICAGKAGCPI [RPS21]', 3.89);

Asked: Recorded protein stability index of PHQREKIDKEIELHRILHHKHVVQ [PLK2] , please.
Given back: 3.73

Asked: // repeat for DDPENKKTSSSSKAGFTASPFTNL [CDC14A] and report
Given back: 4.95

###

- protocol-details: protein stability index of a GFP-peptide fusion (GPS, HEK-293T) (PSI 1-6); higher = more stable
- applied-conditions: treatment: MLN4924 1 uM, 8 h; c terminus: a fixed tail appended
Use 4 as the dividing line for protein stability index, with the line itself on the 1 side and lower values as 0.

Example entries begin here.
INSERT INTO assay_data (residues, answer_label) VALUES
  ('NMCGYHSQDRYEFSSHITRGEHRF [IKZF1]', 0),
  ('EEAEGARWTSYRFSRVCRLHRGQL [TRIM35]', 0),
  ('PYKWVVEAANLLIPAVGSSLSEAL [MYBL2]', 0),
  ('GAEPGTYLTGTINGDPESVASLHW [ADAMTS4]', 0),
  ('PLRPLLGFRESDSAKPASLRLLQH [C6orf223]', 0);

Asked: Would you say ERLAEAEKSQLIMQAEAEAASVRM [FLOT1] shows protein stability index at minimum 4?
Given back: 1

Asked: // next record ARKAMRNGISPIIIDNTNLHAWEM [N4BP2L1]
Given back: 0

###

- protocol-details: protein stability index of a GFP-peptide fusion (GPS, HEK-293T) (PSI 1-6); higher = more stable
- applied-conditions: treatment: DMSO; c terminus: a fixed tail appended
Please enter fulfilled where protein stability index is greater than or equal to 3, and not fulfilled where it is lower.

Asked: Given LSSQCFSNISRPRDNPMCLKCDLQ [M1AP] , state whether its protein stability index is at least 3.
Given back: fulfilled

Asked: What about STSEESWTDSEVDSSCSGQPIHLW [SPDEF] ?
Given back: fulfilled

Asked: Request: ELSSLGSDSEANGFAERRIDKFGF [TBC1D10A]
Given back: fulfilled

Asked: Try this sequence next: GGTSSNNSEEEEDDDDEEEEVSEV [ANKRD17]
Given back: fulfilled

Asked: Okay, and PHVCSLCGKAFYKKYRLTEHERAH [ZNF649] ?
Given back: fulfilled

Asked: RKTHVLLGRSHDTVQEAATSRRAR [MFSD9] ?
Given back: fulfilled

###

- protocol-details: protein stability index of a GFP-peptide fusion (GPS, HEK-293T) (PSI 1-6); higher = more stable
- applied-conditions: treatment: DMSO; c terminus: a fixed tail appended
recorded-metric: protein stability index

INSERT INTO assay_data (residues, result) VALUES
  ('LLTVTATDRDEGANGEVTYSFRKL [PCDHGA10]', 4.1);

Asked: Param item = DVAISANIADIEEKRGFTSHFVFV [NCF4] ; retrieve measured protein stability index.
Given back: 2.23

Asked: Same for KMDMSVLEISGIIMSRVNAYQQGV [PHTF1]
Given back: 2.5

Asked: Also ASIQNHVRKREAPAPEAESKQTEK [EFHC1] , if possible.
Given back: 5.36

Asked: Another sequence to check: HAFPVVTENRGNEKEFMKGNQLIS [CLCN6]
Given back: 4.08

Asked: And FSVKFEVQAPRWGNPRALSFVLSS [OAS1] ?
Given back: 2.94

Asked: Moving on to PVSMEMDNHMSDKDESCYDNAEAA [INTS3]
Given back: 5.53

Asked: Here is the next sequence: NVHFKEETVKLFICELVMALDYLQ [STK32A]
Given back: 2.81
